- Tested on: 171881-019-R-J1-PDC tumor spheroid viability
- measurement-protocol: Anticancer human tumor 171881-019-R-J1-PDC patient-derived invasive breast carcinoma cell line growth inhibition [PI3K]; active = viability on the fitted dose curve at most 10% of control; inactive = the rest
- run-conditions: second compound 0.1 µM; first compound 10 µM; spheroids with HUVEC and MSC
Answer with one of the outcomes given here: 1 for active, -1 for inactive

See these solved cases before continuing.
INSERT INTO results (molecule, category_label) VALUES
  ('Cn1nccc1Nc1nccc(-c2ccn(C(CO)c3ccc(Cl)c(F)c3)c(=O)c2)n1 (stereo not given) + CC(Nc1ccc2c(c1)OCCn1cc(N3C(=O)OCC3C(F)F)nc1-2)C(N)=O', 1),
  ('CC(C)NCC(C(=O)N1CCN(c2ncnc3c2C(C)CC3O)CC1)c1ccc(Cl)cc1 (stereo not given) + CC(Nc1ccc2c(c1)OCCn1cc(N3C(=O)OCC3C(F)F)nc1-2)C(N)=O', 1);

Query: // outcome(item) with item = CNC(=O)c1ccc(N2C(=S)N(c3ccc(C#N)c(C(F)(F)F)c3)C(=O)C2(C)C)cc1F + CC(Nc1ccc2c(c1)OCCn1cc(N3C(=O)OCC3C(F)F)nc1-2)C(N)=O
Result: -1

Query: // outcome(item) with item = C=CC(=O)N1CCN(c2nc(=O)n(-c3c(C)ccnc3C(C)C)c3nc(-c4c(O)cccc4F)c(F)cc23)C(C)C1 (stereo not given) + Cc1nc(NC(=O)N2CCCC2C(N)=O)sc1-c1ccnc(C(C)(C)C(F)(F)F)c1
Result: -1

Query: // outcome(item) with item = CCCS(=O)(=O)Nc1ccc(F)c(C(=O)c2c[nH]c3ncc(-c4ccc(Cl)cc4)cc23)c1F + CC(Nc1ncnc2nc[nH]c12)c1cc2cccc(Cl)c2c(=O)n1-c1ccccc1
Result: -1

----------
- Tested on: 171881-019-R-J1-PDC tumor spheroid viability
- measurement-protocol: Anticancer human tumor 171881-019-R-J1-PDC cell line growth inhibition [PI3K];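 also: spheroids exposed to compound for 7 days before viability read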;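 as to viability, T/C: 100% = DMSO vehicle-treated spheroids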
- run-conditions: second compound 0.0316 µM; first compound 0.0949 µM; stronger effect = lower value; spheroids with HUVEC and MSC
What viability, T/C was measured for each of the following?

INSERT INTO assay_data (molecule, metric, experimental_value) VALUES
  ('Cn1cnc2c(F)c(Nc3ccc(Br)cc3Cl)c(C(=O)NOCCO)cc21 + CC(Nc1ncnc2nc[nH]c12)c1cc2cccc(Cl)c2c(=O)n1-c1ccccc1', 'viability, T/C', '89.2%'),
  ('Cn1cnc2c(F)c(Nc3ccc(Br)cc3Cl)c(C(=O)NOCCO)cc21 + CC(Nc1ccc2c(c1)OCCn1cc(N3C(=O)OCC3C(F)F)nc1-2)C(N)=O', 'viability, T/C', '33.9%'),
  ('Cn1cnc2c(F)c(Nc3ccc(Br)cc3Cl)c(C(=O)NOCCO)cc21 + Cc1nc(NC(=O)N2CCCC2C(N)=O)sc1-c1ccnc(C(C)(C)C(F)(F)F)c1', 'viability, T/C', '71.5%');

Attention now turns to another entry.
Query: viability, T/C; subject: Cn1cnc2c(F)c(Nc3ccc(Br)cc3Cl)c(C(=O)NOCCO)cc21 + COc1c(OCCCN2CCOCC2)ccc2c3n(c(=NC(=O)c4cnc(N)nc4)nc12)CCN3
Result: 16.9%

----------
- System: 171881-019-R-J1-PDC tumor spheroid viability
- measurement-protocol: Anticancer human tumor 171881-019-R-J1-PDC cell line growth inhibition [PI3K];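 also: spheroids exposed to compound for 7 days before viability read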
- run-conditions: curve of first compound; second compound 0.01 µM; spheroids with HUVEC and MSC
- Description: Combinatorial screen of targeted agents with the PI3K inhibitors inavolisib, alpelisib, duvelisib, and copanlisib in multi-cell type tumor spheroids A high-throughput screen of multi-cell type tumor spheroids was designed to identify active combinations of targeted small molecules and PI3K pathway inhibitors. […] Compounds. […] If the clinical Cmax for an agent had not been determined, the highest concentration tested was 10 microM. […]
metric: IC50 (nM)
Give bare numbers, in nM.

// solved cases for IC50 follow
INSERT INTO assay_data (compound, metric, experimental_value) VALUES
  ('Cn1cnc2c(F)c(Nc3ccc(Br)cc3Cl)c(C(=O)NOCCO)cc21 + CC(Nc1ccc2c(c1)OCCn1cc(N3C(=O)OCC3C(F)F)nc1-2)C(N)=O', 'IC50', 71),
  ('CC1(C)CCC(CN2CCN(c3ccc(C(=O)NS(=O)(=O)c4ccc(NCC5CCOCC5)c([N+](=O)[O-])c4)c(Oc4cnc5[nH]ccc5c4)c3)CC2)=C(c2ccc(Cl)cc2)C1 + COc1c(OCCCN2CCOCC2)ccc2c3n(c(=NC(=O)c4cnc(N)nc4)nc12)CCN3', 'IC50', 1070),
  ('CC1(C)CCC(CN2CCN(c3ccc(C(=O)NS(=O)(=O)c4ccc(NCC5CCOCC5)c([N+](=O)[O-])c4)c(Oc4cnc5[nH]ccc5c4)c3)CC2)=C(c2ccc(Cl)cc2)C1 + CC(Nc1ccc2c(c1)OCCn1cc(N3C(=O)OCC3C(F)F)nc1-2)C(N)=O', 'IC50', 2720);

Attention now turns to another entry.
Query: Which measured IC50 belongs to C=CC(=O)N1CCN(c2nc(=O)n(-c3c(C)ccnc3C(C)C)c3nc(-c4c(O)cccc4F)c(F)cc23)C(C)C1 (stereo not given) + CC(Nc1ccc2c(c1)OCCn1cc(N3C(=O)OCC3C(F)F)nc1-2)C(N)=O , tested on 171881-019-R-J1-PDC tumor spheroid viability?
Result: 7320
